- Tested on: Rattus norvegicus
- assay-name: Percentage change of triglycerides in obese female Zucker rats after 2 weeks of pre-treatment at a dose of 30 mg/kg/day
- Format: functional
Listed compounds paired with reported Change
metric-name: Change (%)

CC(C)(CO)CCCCC(=O)CCCCC(C)(CO)c1ccccc1 (stereo not given) : -8
CC(CO)(CCCCC(=O)CCCCC(C)(CO)c1ccccc1)c1ccccc1 (stereo not given) : 21
Cc1ccc(C(C)(CCCCC(=O)CCCCC(C)(C(=O)O)c2ccc(C)cc2)C(=O)O)cc1 (stereo not given) : 12
CC(C)(CCCCC(=O)CCCC(C)(C)C(=O)O)C(=O)O : 23
Cc1ccc(C(C)(CO)CCCCC(=O)CCCCC(C)(CO)c2ccc(C)cc2)cc1 (stereo not given) : 0

----------
- Test system: Rattus norvegicus
- assay-name: Percentage change of HDL cholesterol levels in obese female Zucker rats after 2 weeks of pre-treatment at a dose of 30 mg/kg/day
- Format: functional
metric-name: Change

Cc1ccc(C(C)(CO)CCCCC(=O)CCCCC(C)(CO)c2ccc(C)cc2)cc1 (stereo not given) : -2%
CC(CO)(CCCCC(=O)CCCCC(C)(CO)c1ccccc1)c1ccccc1 (stereo not given) : -27%
CC(C)(CCCCC(=O)CCCC(C)(C)C(=O)O)C(=O)O : 4%
Cc1ccc(C(C)(CCCCC(=O)CCCCC(C)(C(=O)O)c2ccc(C)cc2)C(=O)O)cc1 (stereo not given) : 10%
CC(C)(CO)CCCCC(=O)CCCCC(C)(CO)c1ccccc1 (stereo not given) : -5%

----------
- System: Rattus norvegicus
- assay-name: Percentage change of triglycerides in obese female Zucker rats after 1 week of pre-treatment at a dose of 30 mg/kg/day
- Format: functional
metric-name: Change (%)

CC(CO)(CCCCC(=O)CCCCC(C)(CO)c1ccccc1)c1ccccc1 (stereo not given) : -25
Cc1ccc(C(C)(CO)CCCCC(=O)CCCCC(C)(CO)c2ccc(C)cc2)cc1 (stereo not given) : 15
Cc1ccc(C(C)(CCCCC(=O)CCCCC(C)(C(=O)O)c2ccc(C)cc2)C(=O)O)cc1 (stereo not given) : -11
CC(C)(CCCCC(=O)CCCC(C)(C)C(=O)O)C(=O)O : -2
CC(C)(CO)CCCCC(=O)CCCCC(C)(CO)c1ccccc1 (stereo not given) : 18
